test: Cytotoxicity against human DRO 81-1 cells after 72 hrs by MTS assay; format: functional, cell-based
value-type: IC50 (nM)
Output spec: scalar in nM, unitless text.

INPUT: Record request: IC50 value, item CC(=O)OCC1=C(C)C[C@H]([C@@H](C)[C@H]2CC[C@H]3[C@@H]4C[C@H]5O[C@]56CC=CC(=O)[C@]6(COC(C)=O)[C@H]4CC[C@]23C)OC1=O
OUTPUT: 1100

INPUT: Which IC50 is listed for C=CCCC(=O)OC[C@]12C(=O)C=C[C@H](OC(=O)CCC=C)[C@]13O[C@@H]3C[C@H]1[C@@H]3CC[C@H]([C@H](C)[C@H]4CC(C)=C(COC(C)=O)C(=O)O4)[C@@]3(C)CC[C@@H]12 ?
OUTPUT: 580

INPUT: Please look up its IC50: CC(=O)OCC1=C(C)C[C@H]([C@@H](C)[C@H]2CC[C@H]3[C@@H]4C[C@H]5O[C@]56[C@@H](OC(C)=O)C=C(I)C(=O)[C@]6(COC(C)=O)[C@H]4CC[C@]23C)OC1=O
OUTPUT: 115

INPUT: What value of measured IC50 is listed for CC1=C(CO)C(=O)O[C@@H]([C@@H](C)[C@H]2CC[C@H]3[C@@H]4C[C@H]5O[C@]56[C@@H](O)C=CC(=O)[C@]6(CO)[C@H]4CC[C@]23C)C1 ?
OUTPUT: 1700

###

assay: Cytotoxicity against human DRO 81-1 cells after 72 hrs by MTS assay; format: functional, cell-based
Listing of recorded pIC50 by entry.
Keep in mind that pIC50 stands for -log10 of concentration in molar terms.

INPUT: Param item = CC1=C(CO)C(=O)O[C@@H]([C@@H](C)[C@H]2CC[C@H]3[C@@H]4C[C@H]5O[C@]56[C@@H](O)C=C(I)C(=O)[C@]6(CO)[C@H]4CC[C@]23C)C1 ; retrieve measured pIC50.
OUTPUT: 5.28

INPUT: Form field: reported pIC50 of CC(=O)OCC1=C(C)C[C@H]([C@@H](C)[C@H]2CC[C@H]3[C@@H]4C[C@H]5O[C@]56[C@@H](O)C=CC(=O)[C@]6(CO)[C@H]4CC[C@]23C)OC1=O
OUTPUT: 5.98

INPUT: Which measured pIC50 value corresponds to CC(=O)OCC1=C(C)C[C@H]([C@@H](C)[C@H]2CC[C@H]3[C@@H]4C[C@H]5O[C@]56[C@@H](OC(C)=O)C=CC(=O)[C@]6(CO)[C@H]4CC[C@]23C)OC1=O ?
OUTPUT: 7.24

INPUT: Find the recorded pIC50 belonging to CC(=O)OCC1=C(C)C[C@H]([C@@H](C)[C@H]2CC[C@H]3[C@@H]4C[C@H]5O[C@]56[C@@H]5C=CC(=O)[C@]6(COC(=O)CC/C=C/CCC(=O)O5)[C@H]4CC[C@]23C)OC1=O and report it.
OUTPUT: 6.65

INPUT: Suppose we examine the compound CC(=O)OCC1=C(C)C[C@H]([C@@H](C)[C@H]2CC[C@H]3[C@@H]4C[C@H]5O[C@]56[C@@H](O)C=CC(=O)[C@]6(COC(C)=O)[C@H]4CC[C@]23C)OC1=O ; what pIC50 value has been reported?
OUTPUT: 6.81
